- System: AncSZ
- experiment_description: phosphorylation enrichment, bacterial display (enrichment ratio); higher = better substrate or ligand; peptides without Tyr show the background;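 further: 11-residue human phosphosite peptides and single-mutation variants displayed on the E. coli surface, counted by deep sequencing, each peptide's frequency after selection divided by its frequency in the unselected input library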;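 further: frequency after pTyr selection over input frequency; kinase dosed for 20-30% of maximal phosphorylation in three min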
This section presents sequences with their documented phosphorylation enrichment values.
Returns: the value as a bare number; no unit string appended.

## Input Looking for the measured phosphorylation enrichment of KLVQLYDVCTK [BTK_Y461_G462D] , can you help?
## Output 0.994

====

- System: Fer (mouse)
- experiment_description: phosphorylation enrichment, bacterial display (enrichment ratio); higher = better substrate or ligand; peptides without Tyr show the background
This section presents sequences with their documented phosphorylation enrichment values.
Returns: the value as a bare number; no unit string appended.

# sequence_string, phosphorylation enrichment
measured = [
    ("DRIVNYSRASI [ATP7A_Y1459]", 0.41),
    ("RALRHYYKLNI [ETV6_Y401]", 0.402),
    ("ANVKWYRSGRE", 0.402),
]

## Input Param readout = phosphorylation enrichment; param system = Fer (mouse); param query = VNKIFHPDFIV [LIG3_Y768_Y768H_YF] ; response: value
## Output 0.397

====

- Test system: c-Abl (mouse)
- experiment_description: phosphorylation enrichment, bacterial display (enrichment ratio); higher = better substrate or ligand; peptides without Tyr show the background
Okay, here is how we bin by phosphorylation enrichment: bottom (below 0.6), middle (0.6 to below 0.8), top (0.8 or more)

Worked set:
# sequence_string, class_assignment
data = [
    ("FKEIVYAVSSD [DCX_Y70_G67E]", "top"),
    ("LSDGPYSNSFE [EPOR_Y485_P488S_YF]", "top"),
    ("PMWHPYKVDVT [TP53TG5_Y255]", "bottom"),
]

## Input Just checking, what class would you give FDNSVYQKTTE [LDLR_Y828_P826S] here?
## Output middle

## Input Just checking, what class would you give KDGSGYISAAE [CALM1_Y100_N98S] here?
## Output bottom

## Input Just checking, what class would you give RGDCMYAPLLG [AR_Y269] here?
## Output top

## Input Just checking, what class would you give LIHLHYIRRDY [BBS4_Y43_K46R] here?
## Output bottom

## Input Just checking, what class would you give HGEAVYSRDCV [XPC_Y676_R671H] here?
## Output middle

## Input Just checking, what class would you give KIVATYRLCSE [DNAH3_Y1586] here?
## Output middle

## Input Just checking, what class would you give GTHCHYKAPTV [FZD9_Y569] here?
## Output top

## Input Just checking, what class would you give PGVNFYFQVSA here?
## Output top

## Input Just checking, what class would you give FETSHYLASPD [CTNND2_Y1217_P1218L_YF] here?
## Output middle

## Input Just checking, what class would you give GRERPYGGGGG [FUS_Y526_R521G] here?
## Output bottom

## Input Just checking, what class would you give FRGFSYDDIPD [TMEM230_Y112_YF] here?
## Output top

## Input Just checking, what class would you give HLVLNYGVCIC [JAK2_Y613_V617I] here?
## Output top

====

- target_entity: Jak2 (UniProt O60674)
- Sequence (O60674 whole entry, looked up): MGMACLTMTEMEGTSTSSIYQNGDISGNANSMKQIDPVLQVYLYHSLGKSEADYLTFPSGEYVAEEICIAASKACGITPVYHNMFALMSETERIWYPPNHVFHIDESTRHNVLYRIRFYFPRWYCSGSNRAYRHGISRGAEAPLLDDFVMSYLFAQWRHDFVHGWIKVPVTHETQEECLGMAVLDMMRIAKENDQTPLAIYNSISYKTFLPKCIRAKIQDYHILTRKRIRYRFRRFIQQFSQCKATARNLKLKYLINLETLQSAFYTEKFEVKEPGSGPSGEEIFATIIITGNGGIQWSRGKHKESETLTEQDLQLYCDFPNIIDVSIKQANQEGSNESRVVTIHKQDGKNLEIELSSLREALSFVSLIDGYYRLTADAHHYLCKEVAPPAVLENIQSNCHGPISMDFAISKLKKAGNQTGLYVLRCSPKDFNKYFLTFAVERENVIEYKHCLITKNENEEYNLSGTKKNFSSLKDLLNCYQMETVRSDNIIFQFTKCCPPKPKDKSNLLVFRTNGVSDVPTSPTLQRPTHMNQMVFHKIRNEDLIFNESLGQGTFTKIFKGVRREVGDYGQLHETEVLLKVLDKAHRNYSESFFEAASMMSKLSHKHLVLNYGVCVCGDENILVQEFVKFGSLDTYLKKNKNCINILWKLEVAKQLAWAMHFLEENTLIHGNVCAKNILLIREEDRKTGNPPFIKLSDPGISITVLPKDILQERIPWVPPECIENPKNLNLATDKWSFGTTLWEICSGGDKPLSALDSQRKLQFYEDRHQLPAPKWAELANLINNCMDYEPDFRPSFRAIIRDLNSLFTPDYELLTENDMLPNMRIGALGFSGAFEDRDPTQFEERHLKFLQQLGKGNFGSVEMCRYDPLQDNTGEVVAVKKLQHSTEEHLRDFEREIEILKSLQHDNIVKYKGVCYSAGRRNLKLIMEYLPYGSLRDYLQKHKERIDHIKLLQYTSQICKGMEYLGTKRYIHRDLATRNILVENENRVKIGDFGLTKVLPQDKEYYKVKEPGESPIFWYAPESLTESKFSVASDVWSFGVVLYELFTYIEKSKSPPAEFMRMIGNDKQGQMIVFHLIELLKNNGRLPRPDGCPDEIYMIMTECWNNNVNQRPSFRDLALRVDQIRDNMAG
- experiment_description: phosphorylation enrichment, bacterial display (enrichment ratio); higher = better substrate or ligand; peptides without Tyr show the background
Met means recorded phosphorylation enrichment is 1 or above; Not met means it is below 1.

# sequence_string, target_entity, class_assignment
measured = [
    ("EKKQTYGSCRK [LACTB_Y473_R469K]", "Jak2 (UniProt O60674)", "Not met"),
    ("AEEPIYIIVPA [BMXtide_2014]", "Jak2 (UniProt O60674)", "Met"),
]

## Input Given the entry RIVEIYSRSLQ [GCH1_Y175_R178S] , answer whether its phosphorylation enrichment meets or surpasses 1.
## Output Not met

## Input Given the entry RAYRHYLLKQK [SCN2A_Y1919_R1918H] , answer whether its phosphorylation enrichment meets or surpasses 1.
## Output Not met

## Input Given the entry MSNFACVKREV [SCN1A_Y1694_Y1694C] , answer whether its phosphorylation enrichment meets or surpasses 1.
## Output Not met

## Input Given the entry AIGFEYSEINI [SIGLEC12_Y588_YF] , answer whether its phosphorylation enrichment meets or surpasses 1.
## Output Met
